All values here come from paper PMC5913336.

# TARGET SYSTEM: Fkh (Drosophila melanogaster, UniProt P14734 209-300)
# Sequence: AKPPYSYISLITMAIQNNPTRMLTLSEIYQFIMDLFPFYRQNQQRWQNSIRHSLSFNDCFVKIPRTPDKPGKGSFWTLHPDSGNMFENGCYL
# PROTOCOL DETAILS: FP; 33 mM phosphate pH 7.0, 90 mM NaCl, 0.01% Tween 20, 0.1 mM DTT, 0.5% agarose; room temperature
# ASSAY CONTEXT: tags: N-GST (pGEX-6P-1, kept); dsDNA, one strand shown
MEASURED ENDPOINT: binding signal

**Query** Indicate its recorded binding signal; the sequence in question is AGTTAAATTTTGA
**Result** 7.9 Kd / Kd of best base at the position
